Experiment: NCI Yeast Anticancer Drug Screen. Data for the rad14 strain (AID 159);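 note: 0% = growth of vehicle-treated control cultures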
Conditions: S. cerevisiae rad14 strain growth inhibition; at 100.0 µM; active compounds read high
The panel holds about 79,000 compounds, 15% with a hit somewhere; the sample as a whole holds those more often.
measurement.name: growth inhibition (%)

INSERT INTO results (molecule, measurement_name, test_value) VALUES
  ('c1ccc(C2=NNC3c4ccccc4-c4ccccc4N3C2)cc1 (configuration not stated)', 'growth inhibition', 26),
  ('COc1ccc2c(C)cc(N/N=C/c3sccc3C)nc2c1', 'growth inhibition', 31),
  ('OC1C#CCSCC#C/C=C\1 (configuration not stated)', 'growth inhibition', 98),
  ('Nc1c([N+](=O)[O-])cc2c3c(cccc13)CC2', 'growth inhibition', 54),
  ('Cc1nc2ccccc2c(=O)n1NC(=O)c1ccc(CS)cc1', 'growth inhibition', 95),
  ('O=C(c1c(F)c(F)c(F)c(F)c1F)c1c(F)c(F)c(F)c(F)c1F', 'growth inhibition', 99),
  ('C=Cc1c(C)c(O)cc2c1-c1ccc(O)c(C)c1CC2', 'growth inhibition', 98),
  ('O=C(Cc1ccccc1F)NC1=C(Cl)C(=O)c2ccccc2C1=O', 'growth inhibition', 38),
  ('CC1C=CN(N(C)C)C2=C1C(=O)c1cnccc1C2=O (configuration not stated)', 'growth inhibition', 95),
  ('CCOC(=O)C1=C(C)NC(C)=C(C(=O)OCC)C1c1cccc([N+](=O)[O-])c1', 'growth inhibition', 88),
  ('CCOc1nc(OCC)nc(-c2cccn2-c2ccccc2)n1', 'growth inhibition', 90),
  ('CC[C@@]1(OC(=O)CN(C)C)C(=O)OCc2c1cc1n(c2=O)Cc2cc3ccccc3nc2-1', 'growth inhibition', 95),
  ('O=[N+]([O-])c1cccc2nc3ccccc3c(NCCC[N+]3([O-])CCOCC3)c12', 'growth inhibition', 97),
  ('CC1(C)CC(=O)C(C(CC(c2ccccc2)c2cc3c(cc2O)OCO3)C2=C(O)CC(C)(C)CC2=O)=C(O)C1 (configuration not stated)', 'growth inhibition', 78),
  ('O=S(=O)(O)CC[S][Sn]([S]CCS(=O)(=O)O)([c]1ccccc1)[c]1ccccc1', 'growth inhibition', 97),
  ('CCOc1ccc2ccc3cccnc3c2n1', 'growth inhibition', 68),
  ('CCN(CC)c1ccc(N=Nc2cc(S(=O)(=O)O)ccc2O)c(O)c1', 'growth inhibition', 5),
  ('COc1ccc(/C=C2\CCc3ccccc3C2=O)cc1OC', 'growth inhibition', 80),
  ('N=c1oc2ccccc2cc1-c1nc2ccccc2[nH]1', 'growth inhibition', 88),
  ('COc1ccc2cc(CN3CCC(C4CCN(Cc5ccc6cc(OC)ccc6c5)CC4)CC3)ccc2c1', 'growth inhibition', 97),
  ('NCC(O)CSCc1ccc(Cl)cc1 (configuration not stated)', 'growth inhibition', 34),
  ('CC1=Cc2ccc(C)cc2C(=O)C1=O', 'growth inhibition', 99),
  ('O=c1c(Br)cc2c(-c3ccccc3)c3cc(Br)c(O)c(Br)c3oc-2c1Br', 'growth inhibition', -4),
  ('COc1cc(C(C)C(C(=O)O)C(=O)C(=O)O)cc(OC)c1OC (configuration not stated)', 'growth inhibition', 5),
  ('CN(C)CCn1c2ccccc2c2nc3cc4ccccc4cc3nc21', 'growth inhibition', 99),
  ('Cc1ccc(S(=O)(=O)N/N=C/c2c(O)ccc3ccccc23)cc1', 'growth inhibition', 83),
  ('Cc1ccnc(NS(=O)(=O)c2ccc(Nc3c4ccccc4nc4ccccc34)cc2)n1', 'growth inhibition', 81),
  ('Cc1cc(N(CCOS(C)(=O)=O)CCOS(C)(=O)=O)ccc1C=O', 'growth inhibition', 83),
  ('Oc1ccc(Cc2nccc3cc(O)c(O)cc23)cc1O', 'growth inhibition', 51),
  ('Cc1ccc(SSc2ccc(C)cc2[N+](=O)[O-])c([N+](=O)[O-])c1', 'growth inhibition', 85),
  ('CC(C)c1ccc(C2NC(=S)NC3=C2c2ccccc2C3=O)cc1 (configuration not stated)', 'growth inhibition', 11),
  ('Cc1ccc2nc(N/N=C/c3ccc(C)s3)cc(C)c2c1', 'growth inhibition', 98);

----------
Assay: NCI Yeast Anticancer Drug Screen. Data for the mec2-1 strain (AID 157)
Details: S. cerevisiae mec2-1 strain, at 11.0 µM, active compounds read high
Description: Growth inhibition of yeast strains with defined genetic alterations is measured as a screen for potential anti-cancer activity. Selected strains with alterations in DNA damage repair or cell cycle control were exposed to compounds and growth inhibition was measured relative to vehicle treated controls. The strain used in this assay is mec2-1
The panel holds about 79,000 compounds, 15% with a hit somewhere; the sample as a whole holds those more often.
measurement.name: growth inhibition (%)

INSERT INTO assay_data (mol_smiles, measurement_name, test_value) VALUES
  ('CN(C)c1ccc(/C=C/c2ccnc3ccc4ccccc4c23)cc1', 'growth inhibition', 4),
  ('Cc1ccc2oc(-c3cccc(N)c3)nc2c1', 'growth inhibition', 3),
  ('Cc1cccc(N2CCN(C(=O)/C(=C/c3ccccc3)NC(=O)c3ccccc3)CC2)c1', 'growth inhibition', 8),
  ('Cn1c(COc2ccc(/C=N/NC(=O)CCC(=O)N/N=C/c3ccc(OCc4c[n+]5ccccc5n4C)cc3)cc2)c[n+]2ccccc12', 'growth inhibition', 0),
  ('N=c1oc2ccccc2cc1-c1nc2ccccc2[nH]1', 'growth inhibition', 11);

----------
Test: NCI Yeast Anticancer Drug Screen. Data for the rad18 strain (AID 177)
Settings: S. cerevisiae rad18 mutant growth inhibition; at 3.7 µM; active compounds read high
The panel holds about 79,000 compounds, 15% with a hit somewhere; the sample as a whole holds those more often.
measurement.name: growth inhibition (%)

INSERT INTO results (molecule, display_unit, test_value) VALUES
  ('CCCCCCCCCCCCOC1C(COCCN2CCCC2)OC2OC(C)(C)OC21 (stereo not drawn)', '%', 27),
  ('O=[N+]([O-])c1ccc2nnnn2c1', '%', 2),
  ('CN(C)CCNC(=O)c1cccc2nc3c(ccc4ccccc43)nc12', '%', 2);

----------
Test: NCI Yeast Anticancer Drug Screen. Data for the rad50EPP+ strain (AID 151);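 note: 0% = growth of vehicle-treated control cultures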
Conditions: S. cerevisiae rad50 mutant strain, at 3.7 µM
Experimental: Growth inhibition of yeast strains with defined genetic alterations is measured as a screen for potential anti-cancer activity. Selected strains with alterations in DNA damage repair or cell cycle control were exposed to compounds and growth inhibition was measured relative to vehicle treated controls. The strain used in this assay is rad50EPP+
About 79,000 compounds went through this panel and 15% of them were active in at least one assay; those are over-represented in the sample as a whole. Activity calls are given as the source filed them. No stated cut-off is given here; in the data, active means growth inhibition above about 70%; inactive means the rest.
Outcome codes: yes (1) (active), no (0) (inactive)

INSERT INTO assay_data (molecule, class_label) VALUES
  ('Cc1cnccc1N=Nc1ccc(N(C)C)cc1', 'no (0)'),
  ('CC(C)c1ccc(C2NC(=S)NC3=C2c2ccccc2C3=O)cc1 (centres undefined)', 'no (0)'),
  ('[O-]c1c2cc(-[n+]3c(-c4ccccc4)cc(-c4ccccc4)cc3-c3ccccc3)cc1COCCOCCOCCOCCOC2', 'no (0)'),
  ('BrC/C=C/C[P+](c1ccccc1)(c1ccccc1)c1ccccc1', 'no (0)'),
  ('CC(=O)CC[N+](C)(C)C', 'no (0)'),
  ('CC[N+]1(C)CCC(O)(/C=C/c2ccc(Cl)c(Cl)c2)C(C(=O)/C=C/c2ccc(Cl)c(Cl)c2)C1 (centres undefined)', 'yes (1)'),
  ('Cc1cc(N(CCOS(C)(=O)=O)CCOS(C)(=O)=O)ccc1C=O', 'no (0)'),
  ('O=C(Cc1ccccc1F)NC1=C(Cl)C(=O)c2ccccc2C1=O', 'no (0)'),
  ('CN(C)CCNC(=O)c1cccc2nc3c4ccccc4c4ccccc4c3nc12', 'no (0)');

----------
Experiment: NCI Yeast Anticancer Drug Screen. Data for the mlh1 strain (AID 171);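 note: 0% = growth of vehicle-treated control cultures of the same strain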
Settings: S. cerevisiae mlh1 strain growth inhibition; at 100.0 µM
Compounds without any hit were thinned out: in the full panel of roughly 79,000, 15% have a hit. Active and inactive are the calls of the source. No stated cut-off is given here; in the data, active means growth inhibition above about 70%; inactive means the rest.
Classes used: true (1) = active, false (0) = inactive

INSERT INTO measurements (compound, class_label) VALUES
  ('O=C1OC(/C=C/c2ccccc2)Sc2ccccc21 (stereo unspecified)', 'false (0)'),
  ('CCCCCCC(CCl)c1sc(-c2csc(CCNC(=O)OC(C)(C)C)n2)nc1C(=O)OC (stereo unspecified)', 'true (1)'),
  ('Cc1cc(NCCCN(C)C)c2ccc3c(ccc4c(NCCCN(C)C)cc(C)nc43)c2n1', 'false (0)'),
  ('Cc1cc(NC(=S)SCc2ccc(Cl)cc2)ccc1Cl', 'true (1)'),
  ('[Cl][Pt+2][Cl].[NH-]CC1(C[NH-])CCCCC1', 'true (1)'),
  ('CN1CCN(c2ccc3nc(-c4ccc5nc(-c6ccc(O)cc6)[nH]c5c4)[nH]c3c2)CC1', 'true (1)');
